EXPERIMENTAL_PROTOCOL: acute toxicity for rats (LD50, Pershin method)
CONDITION_SET: rat, in vivo, ip, intraperitoneal
OBSERVED_PROPERTY: LD50 (mg/kg)
API: value field is a number in mg/kg; no unit string.

Q: Endpoint output: LD50 of `O=C(O)c1ccc(NC(=S)Nc2ccccc2)cc1O` . Value?
Ans: 734

---

molecules and their reported Results from one-step virus growth cycle experiments, PFU/ml
Test system: poliovirus 1
Type: cell-based, poliovirus 1 (FL cells)
CONDITION_SET: maximum subtoxic concentration, control 1.2×10^9

[[record]]
sample_smiles = "Oc1cccc(NC(=S)Nc2ccccc2)c1"
reported_result = "7×10^6 PFU/ml"

[[record]]
sample_smiles = "O=C(O)c1ccc(NC(=S)Nc2ccccc2)cc1O"
reported_result = "< 1×10^6 PFU/ml"

[[record]]
sample_smiles = "S=C(Nc1ccccc1)Nc1ccc(Cl)cc1NC(=S)Nc1ccccc1"
reported_result = "4.3×10^8 PFU/ml"

[[record]]
sample_smiles = "O=C(O)CCCNC(=S)Nc1ccccc1"
reported_result = "1.5×10^7 PFU/ml"

[[record]]
sample_smiles = "Oc1ccc(NC(=S)Nc2ccccc2)cc1"
reported_result = "3.7×10^8 PFU/ml"


Now consider the entry below.
Q: Name the reported Results from one-step virus growth cycle experiments, PFU/ml value associated with the molecule `CC(=O)c1ccc(NC(=S)Nc2ccccc2)cc1`
Ans: 4.6×10^7 PFU/ml

---

EXPERIMENTAL_PROTOCOL: acute toxicity for mice (LD50, Pershin method)
CONDITION_SET: mouse, in vivo; LD50 /ED50; read-out: selectivity index (LD50 /ED50)
OBSERVED_PROPERTY: selectivity ratio

Q: Which selectivity ratio value is on record for `O=C(O)c1ccc(NC(=S)Nc2ccccc2)cc1O` ?
Ans: ≥ 23

---

EXPERIMENTAL_PROTOCOL: acute toxicity for mice (LD50, Pershin method)
CONDITION_SET: mouse, in vivo, sc; mice, subcutaneous; Pershin method
OBSERVED_PROPERTY: LD50

Q: Sample `O=C(O)c1ccc(NC(=S)Nc2ccccc2)cc1O` — what was its LD50?
Ans: > 1000 mg/kg

---

EXPERIMENTAL_PROTOCOL: acute toxicity for mice (LD50, Pershin method)
CONDITION_SET: mouse, in vivo, ip; mice, intraperitoneal; Pershin method
OBSERVED_PROPERTY: LD50
Number first, unit second: that is the form wanted.

Q: Find the recorded LD50 belonging to `O=C(O)c1ccc(NC(=S)Nc2ccccc2)cc1O` and report it.
Ans: 550 mg/kg

---

EXPERIMENTAL_PROTOCOL: acute toxicity / selectivity index, species not stated
CONDITION_SET: in vivo; species and route not given
OBSERVED_PROPERTY: LD50 (mg/kg)
Supply the numeric figure in mg/kg, leaving out any unit text.

Q: So what's the measured LD50 for this one? Oc1cccc(NC(=S)Nc2ccccc2)c1 [Example 22, N-phenyl-N'-3-hydroxyphenylthiourea]
Ans: 1000

---

Tested on: poliovirus 1
Format: cell-based, poliovirus 1 (FL cells)
CONDITION_SET: maximum subtoxic concentration, control 1.2×10^9
OBSERVED_PROPERTY: Results from one-step virus growth cycle experiments, PFU/ml

[[record]]
sample_smiles = "Cc1cccc(NC(=S)Nc2ccccc2)c1"
test_system = "poliovirus 1"
reported_result = "1.4×10^7 PFU/ml"


Q: Entry `S=C(Nc1ccccc1)Nc1cccc2cccnc12` has what Results from one-step virus growth cycle experiments, PFU/ml?
Ans: 5.2×10^8 PFU/ml

Q: Param item: `O=C(O)c1ccccc1NC(=S)Nc1ccccc1`
Ans: 5.9×10^7 PFU/ml

Q: Next record, please: `O=[N+]([O-])c1ccc(O)c(NC(=S)Nc2ccccc2)c1`
Ans: 3.5×10^8 PFU/ml

Q: Please answer likewise for `S=C(Nc1ccccc1)Nc1cnc2ccccc2c1`
Ans: 3.3×10^8 PFU/ml

Data origin: patent US4048333A
